- Tested on: Escherichia coli TOP10
- protocolDetails: shrunken log2 fold change of peptide-encoding DNA abundance (4.5 h post-induction vs induction); higher = less antimicrobial activity (less host growth inhibition)
- settings: time post-induction: 4.5 h; library: site-saturation at positions 5, 18, 19, 20
Entry class follows shrunken log2 fold change: bottom range: < -0.1; center range: ≥ -0.1 and < 0.06; top range: ≥ 0.06

RRIRCRPPRLPRPRPRPFDFPRP    bottom range
RRIRARPPRLPRPRPRPLWAPRP    top range
RRIRKRPPRLPRPRPRPHGCPRP    top range

Prompt line: Place this sequence in its band: RRIRYRPPRLPRPRPRPYCFPRP
Response line: bottom range

Prompt line: Where would RRIRLRPPRLPRPRPRPKPPPRP land among the classes by reported shrunken log2 fold change?
Response line: top range

Prompt line: Class (by measured shrunken log2 fold change) for RRIRMRPPRLPRPRPRPFDNPRP
Response line: center range

====

- Tested on: Escherichia coli TOP10
- protocolDetails: shrunken log2 fold change of peptide-encoding DNA abundance (4.5 h post-induction vs induction); higher = less antimicrobial activity (less host growth inhibition)
- settings: time post-induction: 4.5 h; library: site-saturation at positions 5, 18, 19, 20
Criterion: shrunken log2 fold change meeting or surpassing -0.3. Met: t. Not met: f.

Prompt line: Could you please find out whether RRIRYRPPRLPRPRPRPQSLPRP has shrunken log2 fold change that meets -0.3 or exceeds it?
Response line: t

Prompt line: API: above_or_equal(metric=shrunken log2 fold change, cutoff=-0.3) for item RRIRVRPPRLPRPRPRPFFIPRP
Response line: t

Prompt line: Given RRIRQRPPRLPRPRPRPFWQPRP , state whether its shrunken log2 fold change is at least -0.3.
Response line: t

====

I'd be grateful if you could share measured shrunken log2 fold change for these entries.
- Tested on: Escherichia coli TOP10
- protocolDetails: shrunken log2 fold change of peptide-encoding DNA abundance (4.5 h post-induction vs induction); higher = less antimicrobial activity (less host growth inhibition)
- settings: time post-induction: 4.5 h; library: site-saturation at positions 5, 18, 19, 20
Answers are plain numbers.

Recorded results for 2 sequences are shown here.
RRIRARPPRLPRPRPRPIYEPRP    -0.352
RRIRQRPPRLPRPRPRPSESPRP    -0.0923

Fill in shrunken log2 fold change for each of the 3 sequences listed.
1. RRIRHRPPRLPRPRPRPQRMPRP
2. RRIRSRPPRLPRPRPRPVIIPRP
3. RRIRKRPPRLPRPRPRPYSYPRP

Response line:
1. -0.16
2. -0.254
3. -0.0565

List shrunken log2 fold change for every entry below, keeping the order given.
1. RRIRGRPPRLPRPRPRPFKMPRP
2. RRIRWRPPRLPRPRPRPIPPPRP

Response line:
1: 0.143; 2: 0.101

Okay, here is my list. What is shrunken log2 fold change for each of these?
1. RRIRPRPPRLPRPRPRPVHWPRP
2. RRIRTRPPRLPRPRPRPHAIPRP
3. RRIRSRPPRLPRPRPRPFYEPRP

Response line:
1: 0.00332; 2: 0.103; 3: -0.165

List shrunken log2 fold change for every entry below, keeping the order given.
1. RRIRMRPPRLPRPRPRPNNCPRP
2. RRIRLRPPRLPRPRPRPGWWPRP
3. RRIRQRPPRLPRPRPRPTFSPRP
4. RRIRSRPPRLPRPRPRPFGLPRP
5. RRIRERPPRLPRPRPRPYYNPRP

Response line:
-0.167
0.155
-0.0427
-0.0988
-0.675

Could I get shrunken log2 fold change for every one of these entries?
1. RRIRARPPRLPRPRPRPVESPRP
2. RRIRWRPPRLPRPRPRPMHYPRP

Response line:
1. 0.986
2. -0.107

For each of the items listed, what is its shrunken log2 fold change?
1. RRIRRRPPRLPRPRPRPVSTPRP
2. RRIRYRPPRLPRPRPRPWGAPRP
3. RRIRKRPPRLPRPRPRPNWQPRP
4. RRIRIRPPRLPRPRPRPQEEPRP
5. RRIRIRPPRLPRPRPRPVIRPRP
6. RRIRGRPPRLPRPRPRPEMAPRP
7. RRIRIRPPRLPRPRPRPKHLPRP

Response line:
1: -0.134; 2: -0.315; 3: 0.0483; 4: 0.0133; 5: 0.00816; 6: 2.8; 7: -0.137

sequence RRIRDRPPRLPRPRPRPCDVPRP , shrunken log2 fold change observed: -0.0231

====

- Tested on: Escherichia coli TOP10
- protocolDetails: shrunken log2 fold change of peptide-encoding DNA abundance (4.5 h post-induction vs induction); higher = less antimicrobial activity (less host growth inhibition)
- settings: time post-induction: 4.5 h; library: site-saturation at positions 5, 18, 19, 20
Hi there, I'd appreciate the recorded shrunken log2 fold change for every entry that follows.

RRIRRRPPRLPRPRPRPRGMPRP    0.907
RRIRWRPPRLPRPRPRPQWLPRP    0.275
RRIRNRPPRLPRPRPRPSSEPRP    -0.214
RRIRFRPPRLPRPRPRPMCFPRP    -0.256
RRIRKRPPRLPRPRPRPQLAPRP    0.898
RRIRMRPPRLPRPRPRPQPFPRP    0.211
RRIRCRPPRLPRPRPRPENCPRP    0.0153
RRIRPRPPRLPRPRPRPCCSPRP    -0.556
RRIRSRPPRLPRPRPRPDNHPRP    -0.307
RRIRFRPPRLPRPRPRPMLDPRP    -0.365

Please state shrunken log2 fold change for every sequence in the list that follows.
1. RRIRKRPPRLPRPRPRPNSDPRP
2. RRIRFRPPRLPRPRPRPPYYPRP
3. RRIRLRPPRLPRPRPRPFRKPRP

Response line:
1. -0.0158
2. -0.464
3. 0.0823

// each listed sequence needs a value for shrunken log2 fold change
1. RRIRFRPPRLPRPRPRPAGMPRP
2. RRIRWRPPRLPRPRPRPPIAPRP

Response line:
-0.124
2.1

# return shrunken log2 fold change for each item in the list
1. RRIRDRPPRLPRPRPRPYEQPRP
2. RRIRTRPPRLPRPRPRPMMAPRP
3. RRIRWRPPRLPRPRPRPMPYPRP

Response line:
-0.0135
0.0689
-0.0164

// for each sequence in input: emit shrunken log2 fold change
1. RRIRQRPPRLPRPRPRPENPPRP
2. RRIRIRPPRLPRPRPRPYGPPRP

Response line:
[0.0317, -1.06]

Please give shrunken log2 fold change for each item listed below.
1. RRIRTRPPRLPRPRPRPTESPRP
2. RRIRSRPPRLPRPRPRPTKEPRP
3. RRIRQRPPRLPRPRPRPPRNPRP
4. RRIRERPPRLPRPRPRPHCDPRP
5. RRIRCRPPRLPRPRPRPLGEPRP
6. RRIRTRPPRLPRPRPRPRSYPRP
7. RRIRSRPPRLPRPRPRPFIVPRP

Response line:
1: -0.0539; 2: -0.441; 3: 0.765; 4: 0.023; 5: 0.277; 6: 0.0838; 7: -0.477

List the reported shrunken log2 fold change of each sequence below.
1. RRIRYRPPRLPRPRPRPFGMPRP
2. RRIRDRPPRLPRPRPRPSEMPRP
3. RRIRYRPPRLPRPRPRPALQPRP

Response line:
-0.00968
-0.0135
-0.1

// for each sequence below, give its shrunken log2 fold change
1. RRIRFRPPRLPRPRPRPELGPRP
2. RRIRRRPPRLPRPRPRPITLPRP

Response line:
[0.144, -0.0936]

Fill in shrunken log2 fold change for each of the 2 sequences listed.
1. RRIRNRPPRLPRPRPRPVALPRP
2. RRIRPRPPRLPRPRPRPWEFPRP

Response line:
[-0.0331, -0.0818]

# return shrunken log2 fold change for each item in the list
1. RRIRNRPPRLPRPRPRPKGCPRP
2. RRIRIRPPRLPRPRPRPWCVPRP

Response line:
-0.0382
-0.698

====

- Tested on: Escherichia coli TOP10;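 also: peptides expressed intracellularly from a pBAD plasmid library in pooled LB shake-flask culture, induced with 0.3% L-arabinose, DNA abundance read by NGS, three biological replicates, DESeq2 with apeglm shrinkage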
- protocolDetails: shrunken log2 fold change of peptide-encoding DNA abundance (4.5 h post-induction vs induction); higher = less antimicrobial activity (less host growth inhibition)
- settings: time post-induction: 4.5 h; library: site-saturation at positions 5, 18, 19, 20
assayReadout: shrunken log2 fold change
Numbers only.

RRIRHRPPRLPRPRPRPREAPRP    -0.0215
RRIRVRPPRLPRPRPRPYPCPRP    3.36e-05
RRIRPRPPRLPRPRPRPFCKPRP    -0.511
RRIRWRPPRLPRPRPRPKCYPRP    -0.0376
RRIRVRPPRLPRPRPRPSPGPRP    0.252

Could you report shrunken log2 fold change for every entry in the following list?
1. RRIRWRPPRLPRPRPRPEMTPRP
2. RRIRRRPPRLPRPRPRPTYEPRP
3. RRIRPRPPRLPRPRPRPQTNPRP
4. RRIRRRPPRLPRPRPRPKWTPRP

Response line:
1: -0.0833; 2: -0.21; 3: -0.0828; 4: -0.149

meta.source: the supplement of paper PMC9112550
